# assay_summary: qHTS Screen of the MIPE 4.0 Collection Against Ewings Sarcoma (TC32) (AID 1259256); further: nearly all actives have a fitted effect of over 45% in size
# test_settings: TC32 Ewing sarcoma viability, CellTiter-Glo, 48 h; series mostly up to 45.8 µM
Results filed as inconclusive are left out. Activity calls are given as the source filed them. The call rests on the fitted dose curve; in most records, active means well fitted inhibition curve with a large enough effect; inconclusive means small, poorly fitted or top-dose-only effect; inactive means no such curve, though single readings can be large or run the other way.
Output constraint: value belongs to active, inactive

Write down the call the test reported for this compound. Item: `CN(C)CC[C@H](CSc1ccccc1)Nc1ccc(S(=O)(=O)NC(=O)c2ccc(N3CCN(Cc4ccccc4-c4ccc(Cl)cc4)CC3)cc2)cc1[N+](=O)[O-]`
active

Ok, now `Cc1nc2c([nH]1)CCN(C(=O)c1ccc(NC(=O)c3ccccc3-c3ccccc3)cc1)c1ccccc1-2`
inactive

Ok, now CC1C(=O)OC2C(O)C34C5CC(C(C)(C)C)C36C(OC(=O)C6O)OC4(C(=O)O5)C12O (stereo not drawn)
inactive

Ok, now `CC(=O)OCC(=O)[C@@]12OC(C)(C)O[C@H]1C[C@H]1[C@@H]3C[C@H](F)C4=CC(=O)C=C[C@]4(C)[C@@]3(F)[C@@H](O)C[C@@]12C`
inactive

Ok, now `Cn1cnc(-c2cc3nccc(Oc4ccc(NC(=S)NC(=O)Cc5ccccc5)cc4F)c3s2)c1`
active

Ok, now `CC[C@H](C)C(=O)O[C@H]1C[C@H](O)C=C2C=C[C@H](C)[C@H](CC[C@@H](O)C[C@@H](O)CC(=O)O)[C@H]21`
active

Ok, now `Cc1cnc(CNC(=O)c2c(=O)c3ccc(N4CCCN(C)CC4)nc3n3c2sc2ccccc23)cn1`
inactive

Ok, now CCNC(=O)CCCC=CC[C@@H]1[C@H](C=CC(O)CCc2ccccc2)[C@@H](O)C[C@@H]1O (stereo partly drawn)
inactive

Ok, now `Cc1ccc2c(c1)C(=O)[C@]1(O)CCN(c3ccccc3)C1=N2`
inactive

Ok, now `CC[C@H](CC#N)OC(=O)N[C@@H](C)c1cccc(NC(=O)Nc2ccc(-c3cnco3)c(OC)c2)c1`
active

Ok, now `Cn1c(=O)c(-c2c(Cl)cccc2Cl)cc2cnc(Nc3cccc(C(=O)O)c3)nc21`
inactive

Ok, now CN1CCN2c3ncccc3Cc3ccccc3C2C1 (stereo not drawn)
inactive

Ok, now `C[C@]12C=CC(=O)C=C1CC[C@@H]1[C@@H]2[C@@H](O)C[C@@]2(C)[C@@H]1CC[C@]2(O)C(=O)CO`
inactive

Ok, now `CC(=O)Nc1cccc(-n2c(=O)n(C3CC3)c(=O)c3c(Nc4ccc(I)cc4F)n(C)c(=O)c(C)c32)c1`
active

Ok, now `O=C1CN2Cc3c(ccc(Cl)c3Cl)N=C2N1`
active

Ok, now `CN(C)c1nc(Cc2ccc(NC(=O)c3ccc(C(F)(F)F)cc3)cc2)nc(N(C)C)c1CC(=O)O`
inactive

Ok, now O=C(O)C1=CC(O)C(O)[C@H](O)C1 (stereo partly drawn)
inactive

Ok, now `COc1cc(C=CC(=O)O)ccc1O`
inactive
